test.details: NCI Yeast Anticancer Drug Screen. Data for the wt1 strain (AID 149);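 further: 0% = growth of vehicle-treated wt1 cultures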
test.settings: S. cerevisiae wt1 strain (SPY 50644) growth inhibition; at 1.2 µM; active compounds read high
This is part of a sample that, as a whole, favours compounds with a hit. Of some 79,000 tested, about 15% had one in any assay. Active and inactive are the calls of the source. No stated cut-off is given here; in the data, active means growth inhibition above about 70%; inactive means the rest.
readout.type: growth inhibition

| molecule | readout.type | result |
| --- | --- | --- |
| OC(c1ccccc1)(c1ccccc1)c1nccc2ccccc12 | growth inhibition | 3% (inactive) |
| O=C1SS(=O)c2ccccc21 (configuration not stated) | growth inhibition | -5% (inactive) |
| O=C(CN(c1ccccc1)c1ccccc1)n1nnc2ccccc21 | growth inhibition | 10% (inactive) |
| CC(C)CCC[C@@H](C)[C@H]1CC[C@H]2[C@@H]3CC[C@H]4C[C@H](N)CC[C@]4(C)[C@H]3CC[C@]12C | growth inhibition | -1% (inactive) |
| BrC1C2CCC3OC3C12 (configuration not stated) | growth inhibition | 0% (inactive) |
| O=C1C(CCSc2ccccc2)C(=O)N(c2ccccc2)C1c1ccccc1 (configuration not stated) | growth inhibition | -32% (inactive) |
| CCCCCCCCCCCCOCCOCCOCC(N)=O | growth inhibition | -39% (inactive) |
| CC(=O)O/N=C1C=C/C(=C(/C#N)c2ccccc2)C=C/1C | growth inhibition | 3% (inactive) |
| COc1ccc(N=c2cc(-c3ccccc3)oc3ccccc23)cc1 | growth inhibition | 0% (inactive) |
| C/C1=C/C2OC(=O)C3(C)C2C(CC2(C)OC1=CC2=O)OC3(O)C(C)C (configuration not stated) | growth inhibition | -23% (inactive) |
| CCCCCCCCCCCCCCCCCCN(C)C(COC)COP(=O)([O-])OCC[N+](C)(C)C (configuration not stated) | growth inhibition | -34% (inactive) |
| Fc1cc(F)c(F)c(S)c1F | growth inhibition | -31% (inactive) |
| O=C(c1cc(=O)c2ccc(O)cc2o1)c1ccc(Cl)cc1Cl | growth inhibition | -6% (inactive) |
| CCCCOc1ccc2nc(C)cc(N=[N+]=[N-])c2c1 | growth inhibition | 11% (inactive) |
| CCCCN(CCCC)c1ccc(N=Nc2ccc(S(=O)(=O)O)cc2)cc1 | growth inhibition | -9% (inactive) |
| COc1ccc(C(OCC2OC(n3cnc4c(=O)n(Cc5ccccc5[N+](=O)[O-])nnc43)C(O)C2O)(c2ccccc2)c2ccc(OC)cc2)cc1 (configuration not stated) | growth inhibition | -18% (inactive) |
| Cc1oc2ccccc2c(=O)c1Cn1nnc2ccccc21 | growth inhibition | -2% (inactive) |
| OB(O)c1ccccc1C#Cc1ccccc1 | growth inhibition | -2% (inactive) |
| CC1(c2ccccc2)O[C@@H]2C[C@H]3[C@@H]4CCC5=CC(=O)C=C[C@]5(C)[C@@]4(F)[C@@H](O)C[C@]3(C)[C@]2(C(=O)CO)O1 (some centres not stated) | growth inhibition | 0% (inactive) |
| Nc1ccc2cc(Br)ccc2c1Br | growth inhibition | -2% (inactive) |
| O=C1c2ccccc2C(=O)c2c(O)c(NCCNCCO)cc(O)c21 | growth inhibition | 1% (inactive) |
| NC(N)=NS(=O)(=O)c1ccc(Nc2c3ccccc3nc3c(C(=O)NC(CO)(CO)CO)cccc23)cc1 | growth inhibition | -1% (inactive) |
